So I've got a bunch of sequences here, and I need their PBM binding z-score values.
# System: PPARa:RXRa (NR concentration 270 nM, RXRa partner concentration 90 nM)
# Measurement protocol: PBM binding z-score (relative to random genomic background probes); higher = stronger binding; sequences stand for … in GC…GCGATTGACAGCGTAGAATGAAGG

Q: Answer with PBM binding z-score of `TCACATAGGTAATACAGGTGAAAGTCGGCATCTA` measured for PPARa:RXRa (NR concentration 270 nM, RXRa partner concentration 90 nM).
A: 1.66

Q: Answer with PBM binding z-score of `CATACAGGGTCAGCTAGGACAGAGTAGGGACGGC` measured for PPARa:RXRa (NR concentration 270 nM, RXRa partner concentration 90 nM).
A: 4.13

Q: Answer with PBM binding z-score of `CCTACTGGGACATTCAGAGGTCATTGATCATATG` measured for PPARa:RXRa (NR concentration 270 nM, RXRa partner concentration 90 nM).
A: 3.74

Q: Answer with PBM binding z-score of `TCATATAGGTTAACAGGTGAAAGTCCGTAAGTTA` measured for PPARa:RXRa (NR concentration 270 nM, RXRa partner concentration 90 nM).
A: 3.68

Q: Answer with PBM binding z-score of `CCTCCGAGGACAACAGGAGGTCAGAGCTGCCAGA` measured for PPARa:RXRa (NR concentration 270 nM, RXRa partner concentration 90 nM).
A: 2.02

Q: Answer with PBM binding z-score of `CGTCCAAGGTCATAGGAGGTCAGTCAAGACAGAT` measured for PPARa:RXRa (NR concentration 270 nM, RXRa partner concentration 90 nM).
A: 5.87

Q: Answer with PBM binding z-score of `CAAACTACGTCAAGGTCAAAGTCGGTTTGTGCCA` measured for PPARa:RXRa (NR concentration 270 nM, RXRa partner concentration 90 nM).
A: 4.35
